Source listed as patent US10077261B2.

- Measurement Target: hFASN enzyme (full length) (Homo sapiens, UniProt P49327)
- Construct: 10 μL hFASN enzyme (full length, 300 ng, purified in house); made in house
- Sequence (P49327 whole entry): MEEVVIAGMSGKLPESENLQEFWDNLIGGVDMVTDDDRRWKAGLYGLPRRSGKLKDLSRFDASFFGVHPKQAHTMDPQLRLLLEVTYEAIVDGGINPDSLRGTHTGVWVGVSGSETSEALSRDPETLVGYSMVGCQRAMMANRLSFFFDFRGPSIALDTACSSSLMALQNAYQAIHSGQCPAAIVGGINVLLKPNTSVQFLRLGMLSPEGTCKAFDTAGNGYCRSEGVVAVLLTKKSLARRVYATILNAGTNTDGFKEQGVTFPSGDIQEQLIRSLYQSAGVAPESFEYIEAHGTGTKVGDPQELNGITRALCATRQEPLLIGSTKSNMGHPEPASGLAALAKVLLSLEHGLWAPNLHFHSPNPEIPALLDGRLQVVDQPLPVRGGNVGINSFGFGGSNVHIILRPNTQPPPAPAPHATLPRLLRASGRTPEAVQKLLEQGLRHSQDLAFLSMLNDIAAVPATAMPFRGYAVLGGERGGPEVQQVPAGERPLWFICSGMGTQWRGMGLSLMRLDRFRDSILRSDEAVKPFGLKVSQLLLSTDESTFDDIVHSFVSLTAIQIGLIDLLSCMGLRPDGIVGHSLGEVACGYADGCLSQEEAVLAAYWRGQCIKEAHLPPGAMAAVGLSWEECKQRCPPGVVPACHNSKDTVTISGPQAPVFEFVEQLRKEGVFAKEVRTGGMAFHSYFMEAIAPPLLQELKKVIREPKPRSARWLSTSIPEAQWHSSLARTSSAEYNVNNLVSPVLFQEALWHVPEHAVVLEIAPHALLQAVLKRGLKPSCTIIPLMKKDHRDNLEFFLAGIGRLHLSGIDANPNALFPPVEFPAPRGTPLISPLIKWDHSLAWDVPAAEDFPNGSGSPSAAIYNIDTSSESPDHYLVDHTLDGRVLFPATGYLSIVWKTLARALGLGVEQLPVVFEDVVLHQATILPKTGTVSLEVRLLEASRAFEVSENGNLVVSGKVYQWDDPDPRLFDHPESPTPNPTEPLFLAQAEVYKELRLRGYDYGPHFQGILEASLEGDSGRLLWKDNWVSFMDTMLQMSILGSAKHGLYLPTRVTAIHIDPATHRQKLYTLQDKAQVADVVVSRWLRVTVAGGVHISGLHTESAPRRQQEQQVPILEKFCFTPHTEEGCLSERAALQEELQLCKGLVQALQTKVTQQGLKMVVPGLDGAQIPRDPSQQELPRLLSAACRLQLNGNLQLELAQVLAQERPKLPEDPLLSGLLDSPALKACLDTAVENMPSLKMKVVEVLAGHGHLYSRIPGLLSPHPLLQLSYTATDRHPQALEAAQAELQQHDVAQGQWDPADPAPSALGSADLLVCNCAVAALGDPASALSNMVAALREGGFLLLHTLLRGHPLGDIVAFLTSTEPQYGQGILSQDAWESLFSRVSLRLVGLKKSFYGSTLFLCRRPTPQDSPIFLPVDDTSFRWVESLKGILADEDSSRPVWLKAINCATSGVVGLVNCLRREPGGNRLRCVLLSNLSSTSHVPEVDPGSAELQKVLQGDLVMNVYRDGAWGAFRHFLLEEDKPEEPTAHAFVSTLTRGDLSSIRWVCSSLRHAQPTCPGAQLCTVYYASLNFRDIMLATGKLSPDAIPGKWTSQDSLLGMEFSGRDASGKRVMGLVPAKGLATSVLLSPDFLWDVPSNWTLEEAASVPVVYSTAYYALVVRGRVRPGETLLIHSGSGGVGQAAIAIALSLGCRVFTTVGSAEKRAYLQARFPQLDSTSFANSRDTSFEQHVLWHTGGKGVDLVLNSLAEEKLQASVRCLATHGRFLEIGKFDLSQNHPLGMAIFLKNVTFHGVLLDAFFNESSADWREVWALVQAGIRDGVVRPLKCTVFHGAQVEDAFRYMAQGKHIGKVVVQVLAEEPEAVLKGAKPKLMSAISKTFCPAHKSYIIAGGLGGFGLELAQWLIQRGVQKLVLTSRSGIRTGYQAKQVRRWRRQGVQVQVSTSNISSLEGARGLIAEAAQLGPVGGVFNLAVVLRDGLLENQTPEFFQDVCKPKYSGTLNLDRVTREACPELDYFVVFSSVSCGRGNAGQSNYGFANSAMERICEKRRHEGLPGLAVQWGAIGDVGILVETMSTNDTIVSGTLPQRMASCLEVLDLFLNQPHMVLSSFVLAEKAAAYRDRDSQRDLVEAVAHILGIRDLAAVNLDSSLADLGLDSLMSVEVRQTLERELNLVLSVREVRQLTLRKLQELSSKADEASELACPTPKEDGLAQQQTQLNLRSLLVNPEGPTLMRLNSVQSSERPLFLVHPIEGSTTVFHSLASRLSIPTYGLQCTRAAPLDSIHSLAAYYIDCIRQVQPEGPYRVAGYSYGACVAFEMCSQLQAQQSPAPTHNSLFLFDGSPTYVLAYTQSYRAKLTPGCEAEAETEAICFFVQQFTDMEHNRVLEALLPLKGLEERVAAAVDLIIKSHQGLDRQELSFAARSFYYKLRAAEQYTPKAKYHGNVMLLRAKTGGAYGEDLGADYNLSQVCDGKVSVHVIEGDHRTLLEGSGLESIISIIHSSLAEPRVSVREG
- Experiment: Fatty Acid Synthase (FASN) inhibition scintillation proximity assay
- Format: biochemical
- Details: read-out: Human FASN % inhibition @ 10 μM, 10 μM test compound
Endpoint: inhibition at 10 µM (%)
Please give a number only; it is taken to be in %.

// solved cases for inhibition at 10 µM follow
1) Cn1cnc2cc(-c3ccc(C4=NC5(CC5)C(=O)N4CC4CN(C(=O)C5CC5)C4)c(F)c3)ccc21 :: 96
2) Cn1ncc2ccc(-c3ccc(C4=NC5(CC5)C(=O)N4CC4CCN(C(=O)C5CC5)CC4)cc3)cc21 :: 76.4

Task: Given Cn1cc(-c2ccc(-c3ccc(C4=NC5(CCOC5)C(=O)N4C[C@@H]4CCN(C(=O)[C@H]5CCCO5)C4)cc3)cc2)cn1 (some centres unmarked) , state its recorded inhibition at 10 µM.
Output: 95

Task: Given `Cn1cc(-c2ccc(-c3ccc(C4=NC5(CCN(CCO)CC5)C(=O)N4CC4CN(C(=O)C5CC5)C4)cc3)cc2)cn1` , state its recorded inhibition at 10 µM.
Output: 64

Task: Given `O=C(C1CC1)N1CC[C@@H](CN2C(=O)C3(CC3)N=C2c2ccc(-c3ccc4[nH]ccc4c3)nc2)C1` , state its recorded inhibition at 10 µM.
Output: 102

Task: Given `CN(C)CC(=O)N1CCC2(CC1)N=C(c1ccc(-c3ccc4c(cnn4C)c3)cc1)N(C[C@@H]1CCN(C(=O)C3CC3)C1)C2=O` , state its recorded inhibition at 10 µM.
Output: 110

Task: Given `Cc1[nH]c2ccc(-c3ccc(C4=NC5(CC5)C(=O)N4C[C@@H]4CCN(C(=O)C5CC5)C4)cc3)cc2c1C` , state its recorded inhibition at 10 µM.
Output: 95

Task: Given `O=C(C1CC1)N1CC[C@@H](CN2C(=O)C3(CCCC3)N=C2c2ccc(-c3cccc(-c4cc[nH]n4)c3)cc2)C1` , state its recorded inhibition at 10 µM.
Output: 92.5

Task: Given `CC(=O)N1CCC2(CC1)N=C(c1ccc(-c3ccc4[nH]ccc4c3)cc1)N(C[C@@H]1CCN(C(=O)C3CC3)C1)C2=O` , state its recorded inhibition at 10 µM.
Output: 89.5

Task: Given `CN1CCC2(CC1)N=C(c1ccc(-c3ccc4[nH]ccc4c3)cc1)N(C[C@@H]1CCN(C(=O)C3CC3)C1)C2=O` , state its recorded inhibition at 10 µM.
Output: 109

Task: Given `Cn1cc(-c2ccc(-c3ccc(C4=NC5(CCOCC5)C(=O)N4C[C@@H]4CCN(S(C)(=O)=O)C4)cc3)cc2)cn1` , state its recorded inhibition at 10 µM.
Output: 2

Task: Given CC(O)C(=O)N1CC[C@@H](CN2C(=O)C3(CCOC3)N=C2c2ccc(-c3ccc4occc4c3)cc2)C1 (some centres unmarked) , state its recorded inhibition at 10 µM.
Output: 73

Task: Given `O=C(C1CC1)N1CC[C@@H](CN2C(=O)C3(CC3)N=C2c2ccc(-c3ccc(-c4ccncc4)cc3)cc2)C1` , state its recorded inhibition at 10 µM.
Output: 111

Task: Given `O=C(C1CC1)N1CC[C@@H](CN2C(=O)C3(CC3)N=C2c2ccc(-c3ccc(OC(F)(F)F)cc3)cc2)C1` , state its recorded inhibition at 10 µM.
Output: 64.6
